Values were extracted from patent US20230002757A1.

biological target: T1, PD-1 protein (human, UniProt Q15116 25-167, limits assumed); test: ELISA, PD-1 coated
T1 construct: also called human PD-1
T1 sequence (Q15116 25-167 limits assumed): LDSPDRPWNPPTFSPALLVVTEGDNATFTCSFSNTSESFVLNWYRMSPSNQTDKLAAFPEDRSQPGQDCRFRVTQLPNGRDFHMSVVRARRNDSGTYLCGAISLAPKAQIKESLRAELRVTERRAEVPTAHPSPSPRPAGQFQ
test.readout: OD450 at 0.02 µg/mL (OD450)
A number alone suffices; assume OD450.

Known OD450 at 0.02 µg/mL results, listed for orientation:
[[record]]
binder = "504#SS8 (Fc fusion, VHH-FC construct from HEK293 cells; not shown: The (G4S)3 linker leading to it is left out with it) VHH: EVQVVESGGGLVQAGGSLRLSCTASGRTFSNYAMGWFRQAPGKEREFVASVTWGGSGTFYADSVKGRFTISRDNIKNTVYLQMNSLKPEDTAVYYCAADNVGDSWYSDDYKYWGQGTQVTVSS"
test_readout = "OD450 at 0.02 µg/mL"
observed_result = 0.03

[[record]]
binder = "504#SS2 (Fc fusion, VHH-FC construct from HEK293 cells; not shown: The (G4S)3 linker leading to it is left out with it) VHH: EVQVVESGGGLVKTGDSLRLSCAASGGTISGYEMGWFRQAPGKEREFVAGISRNGRSTGYSDSAKDRFTISRDNAKNTVYLQMNSLKPEDTAVYYCAAGLKADYGDSYVDTSTRNYNYWGQGTQVTVSS"
test_readout = "OD450 at 0.02 µg/mL"
observed_result = 2.25


Alright, here's another binder for you.
Using the record for 504#SS13 (Fc fusion, not shown: a dimerising Fc or GST; small tags and cut ends, VHH-FC construct from HEK293 cells) VHH: EVQVVESGGGSVQPGGSLRLSCAASGRGFTEHAMGWYRQSPGKEREFVAGISSGGSTYYADSVKGRFTVSRDSAGNTVALQMDSLKPEDTAVYYCSYKRGRYPDGVSTLEYWGQGTQVTVSS , state its measured OD450 at 0.02 µg/mL. 0.03
